- protocol text: Primary qHTS for delayed death inhibitors of the malarial parasite plastid, 96 hour incubation
- test context: P. falciparum luciferase reporter growth; series mostly up to 28.7 µM
Among all 320,000 compounds or so, about 22,000 (6.9%) were called active. About 27% were inconclusive and are not listed. The call rests on the fitted dose curve; in most records, active means well fitted inhibition curve with a large enough effect; inconclusive means small, poorly fitted or top-dose-only effect, or another doubt; inactive means no such curve, though single readings can be large or run the other way. What follows is part of a selection rich in actives, with near analogues and random picks from the rest.
Log the outcome using a class from 1 (yes) (active), 0 (no) (inactive)

Any idea what this test logged for "O=C(Nc1ccc(OCC(=O)N2CCOCC2)cc1)c1cc(F)c(F)cc1Cl" ?
0 (no)

Call for entry "O=C(/C=C/c1ccc(OCc2c(F)cccc2Cl)cc1)N1CCOCC1" :
1 (yes)

# outcome recorded in this test, key = O=C1C2CCCN2C(=O)N1CCCCN1CCN(c2cccc(C(F)(F)F)c2)CC1 (stereo not drawn)
1 (yes)

Hi team, can someone confirm the assay call for "Cc1no[n+]([O-])c1COc1ccccc1/C=C1\NC(=S)NC1=O" ?
1 (yes)

Which outcome was assigned to O=C(C1CC(=O)N(C2CCCC2)C1)N1CCN(c2cccc(C(F)(F)F)c2)CC1 (stereo not drawn) in this test?
0 (no)

Hey, what did the test say about "CCn1nc(C(=O)Nc2ccc(N3CCOCC3)cc2)c2ccccc2c1=O" ?
0 (no)

Can you look up the reported call for "O=C(/C=C(O)/C=C/c1ccc(O)cc1)/C=C/c1ccc(O)cc1" for me?
0 (no)

###

- protocol text: Primary qHTS for delayed death inhibitors of the malarial parasite plastid, 96 hour incubation
- test context: P. falciparum luciferase reporter growth; series mostly up to 28.7 µM
Among all 320,000 compounds or so, about 22,000 (6.9%) were called active. About 27% were inconclusive and are not listed. Calls follow the shape of the dose curve; as a rule, active = well fitted inhibition curve with a large enough effect; inconclusive = small, poorly fitted or top-dose-only effect, or another doubt; inactive = no such curve, though single readings can be large or run the other way. Shown is part of a subset that was picked to be rich in actives.
Your reply should match one of these outcome classes. active, inactive

{"compound": "CC(=O)c1c(C)n(-c2ccc(C)cc2)c2ccc(O)cc12", "class label": "active"}

Query: recorded result category for "Cc1ccc(C)c(OCCC(=O)OCC(=O)NC(=O)NCc2ccccc2)c1" in this test
inactive

Status in this test for "O=C(/C=C/c1cccc([N+](=O)[O-])c1)N1CCN(Cc2ccccc2)CC1" ?
inactive

Tell me the assay call for COc1ccc(NC(=O)c2cc([N+](=O)[O-])ccc2NC(=O)CNC2CCCCC2C)c(OC)c1 (configuration not stated) please.
inactive

State the result this test recorded for "Cn1c(CCC(=O)Nc2ccccc2F)nnc1SCC(=O)Nc1ccccc1Cl" .
inactive

What call does the record list for CC1CCCCC1NC(=O)COC(=O)Cc1ccc(Br)cc1 (configuration not stated) ?
inactive

Please state the recorded outcome for this compound: "COc1ccc(Nc2nnc(C)c3ccccc23)cc1"
inactive

Recorded test outcome, item "CCOc1ccc(S(=O)(=O)NCCC(=O)N2CCCCCCC2)cc1"
inactive

Which result was noted for this compound in the test: "O=C(c1ccccc1F)N1CCN(S(=O)(=O)c2ccc(Br)cc2)CC1"
inactive

Record lookup: outcome of this test for "O=C(Nc1ccccc1C(=O)N1CCOCC1)c1ccc(CSc2ccccc2)cc1" ?
inactive

Kindly provide the recorded test outcome for the following compound: "CCCCN1C(=O)c2ccc(C(=O)Nc3ccc(S(=O)(=O)N(C)C)cc3)cc2C1=O"
inactive

Short answer needed: outcome of this test for "CN(Cc1cccs1)C(=O)CN1C(=O)c2ccccc2S1(=O)=O" ?
inactive

What outcome does the record of this test show for "O=C(Nc1ccccc1C(=O)N1CCOCC1)c1ccc(Cl)cc1" ?
active

Which result was noted for this compound in the test: "CCCCN(C)C(=O)c1ccc2c(c1)N(CC)C(=O)c1ccccc1S2(=O)=O"
active

Cited source: PubChem BioAssay AID504834
